- system: Muscarinic acetylcholine receptor
- Assay type: cell membranes, Membrane
- Description: Inhibition of [3H]quinuclidinyl benzilate (QNB) binding from rat forebrain membranes in the presence of Zn
Property: IC50; scope: individual compounds
measured attribute: IC50 (µM)

{"compound": "CCCN(c1cc(Cl)ncn1)n1ccc2ccccc21", "measured attribute": "IC50", "operator symbol": ">", "result": 1000}
{"compound": "c1ccc2c(c1)ccn2Nc1ccncc1", "measured attribute": "IC50", "operator symbol": "=", "result": 16}
{"compound": "CN(c1ccncc1)n1ccc2cc(Br)ccc21", "measured attribute": "IC50", "operator symbol": "=", "result": 2.5}
{"compound": "CCCN(c1ccncc1)n1cc2ccccc2n1", "measured attribute": "IC50", "operator symbol": "=", "result": 15}
{"compound": "CCCC(c1ccncc1)n1ccc2ccccc21 (stereo not drawn)", "measured attribute": "IC50", "operator symbol": "=", "result": 29}
{"compound": "CCCCN(c1ccncc1)n1ccc2ccccc21", "measured attribute": "IC50", "operator symbol": "=", "result": 1.5}
{"compound": "O=[N+]([O-])c1ccc2c(ccn2Nc2ccncc2)c1", "measured attribute": "IC50", "operator symbol": "=", "result": 12}
{"compound": "CCCN(c1ccncc1)n1c(C)cc2ccccc21", "measured attribute": "IC50", "operator symbol": "=", "result": 1.4}
